System: Eimeria tenella
Assay: Inhibition Eimeria tenella growth
Type: functional
Conditions: read-out: MEC
metric: minimal effective concentration (µg/mL)

In [3]: df
Out[3]:
                                   compound                           metric  operator_symbol  assay_value
0  OC[C@H]1O[C@@H](n2cnc3c(S)ncnc32)[C@H](O)[C@@H]1O  minimal effective concentration                >           20
1                        CSc1ncnc2[nH]cnc12  minimal effective concentration                >           20
2  CCCSc1ncnc2c1cnn2C1O[C@H](CO)[C@@H](O)[C@H]1O (stereo not given in full)  minimal effective concentration                =        0.019
3  Nc1nc(=S)c2ncn([C@@H]3O[C@H](CO)[C@@H](O)[C@H]3O)c2[nH]1  minimal effective concentration                >           50
4  OC[C@H]1OC(n2ncc3cncnc32)[C@H](O)[C@@H]1O (stereo not given in full)  minimal effective concentration                =          1.3
